The reported measurements were obtained from ChEMBL document CHEMBL1629583.

Can you tell me MIC50 for the items I'm about to list?
tested on: Citrobacter freundii; assay: Antimicrobial activity against Citrobacter freundii clinical isolate after 18 to 22 hrs by broth microdilution method; type: functional
Use µg/mL as the unit, but write only the number.

Query: I have this compound here, "CO/N=C(\C(=O)N[C@@H]1C(=O)N2C(C(=O)O)=C(CSc3nc(=O)c(O)nn3C)CS[C@H]12)c1csc(N)n1" , and I need its recorded MIC50.
Reply: 0.5

Query: I have this compound here, "C[C@H]1COc2c(N3CCN(C)CC3)c(F)cc3c(=O)c(C(=O)O)cn1c23.C[C@H]1COc2c(N3CCN(C)CC3)c(F)cc3c(=O)c(C(=O)O)cn1c23.O" , and I need its recorded MIC50.
Reply: 0.12

Query: I have this compound here, "CCN1CCN(C(=O)N[C@@H](C(=O)N[C@@H]2C(=O)N3[C@@H]2SC(C)(C)[C@@H]3C(=O)O)c2ccccc2)C(=O)C1=O" , and I need its recorded MIC50.
Reply: 4

Query: I have this compound here, C[C@@H](O)[C@H]1C(=O)N2C(C(=O)O)=C(SCCNC=N)C[C@H]12 [IMIPENEM ANHYDROUS] , and I need its recorded MIC50.
Reply: 1

###

test system: Enterococcus hirae; test: Antimicrobial activity against Enterococcus hirae clinical isolate after 18 to 22 hrs by broth microdilution method; format: functional
value.type: MIC50 (µg/mL)
Use µg/mL as the unit, but write only the number.

Query: I have this molecule here, "CN[C@H](CC(C)C)C(=O)N[C@H]1C(=O)N[C@@H](CC(N)=O)C(=O)N[C@H]2C(=O)N[C@H]3C(=O)N[C@H](C(=O)N[C@H](C(=O)O)c4cc(O)cc(O)c4-c4cc3ccc4O)[C@H](O)c3ccc(c(Cl)c3)Oc3cc2cc(c3O[C@@H]2O[C@H](CO)[C@@H](O)[C@H](O)[C@H]2O[C@H]2C[C@](C)(N)[C@H](O)[C@H](C)O2)Oc2ccc(cc2Cl)[C@H]1O" , and I need its recorded MIC50.
Reply: 0.5

Query: I have this molecule here, "CCN1CCN(C(=O)N[C@@H](C(=O)N[C@@H]2C(=O)N3[C@@H]2SC(C)(C)[C@@H]3C(=O)O)c2ccccc2)C(=O)C1=O" , and I need its recorded MIC50.
Reply: 4

Query: I have this molecule here, "C[C@H]1COc2c(N3CCN(C)CC3)c(F)cc3c(=O)c(C(=O)O)cn1c23.C[C@H]1COc2c(N3CCN(C)CC3)c(F)cc3c(=O)c(C(=O)O)cn1c23.O" , and I need its recorded MIC50.
Reply: 1

Query: I have this molecule here, "CC(=O)NC[C@H]1CN(c2ccc(N3CCOCC3)c(F)c2)C(=O)O1" , and I need its recorded MIC50.
Reply: 2

###

system: Proteus mirabilis; experiment: Antimicrobial activity against Proteus mirabilis clinical isolate after 18 to 22 hrs by broth microdilution method; type: functional
Can you tell me MIC50 for the items I'm about to list?
Use µg/mL as the unit, but write only the number.

Query: I have this compound here, C[C@H]1COc2c(N3CCN(C)CC3)c(F)cc3c(=O)c(C(=O)O)cn1c23.C[C@H]1COc2c(N3CCN(C)CC3)c(F)cc3c(=O)c(C(=O)O)cn1c23.O [LEVOFLOXACIN] , and I need its recorded MIC50.
Reply: 0.5

Query: I have this compound here, C[C@@H](O)[C@H]1C(=O)N2C(C(=O)O)=C(SCCNC=N)C[C@H]12 [IMIPENEM ANHYDROUS] , and I need its recorded MIC50.
Reply: 2
